# Assayed System: HIV-1 protease (Human immunodeficiency virus type 1 group M subtype B)
# Construct: made in house; host or cells: E. coli BL21 (dE3)pLysS, pET30a vector
# Protocol Description: HIV-1 Protease Inhibition Assay
# Assay type: biochemical
# Condition Notes: fluorogenic substrate assay
This listing pairs compounds with measured IC50.
Give the number; nM is assumed, so skip it.

| Compound | IC50, nM |
| --- | --- |
| COc1ccc(S(=O)(=O)N(C[C@@H](O)[C@H](Cc2ccccc2)NC(=O)O[C@H]2CO[C@H]3OCCC32)NC(=O)OC(C)(C)C)cc1 (stereo partly shown) [Compound 188] | 3.9 |
| CC(C)CN(C[C@@H](O)[C@H](Cc1ccccc1)NC(=O)O[C@H]1CCOC1)S(=O)(=O)c1ccc(CN2CCN(C)CC2)cc1 [Compound 138] | 270 |
| Cc1ccc(S(=O)(=O)N(CC(C)C)C[C@@H](O)[C@H](CC2CCN(C(=O)c3ccccc3)CC2)NC(=O)O[C@H]2CCOC2)cc1 [Compound 147] | 60 |

Task item: Could you tell me which IC50 is on file for C=CCCCCN(C[C@@H](O)[C@H](Cc1ccccc1)NC(=O)O[C@H]1CO[C@H]2OCCC21)S(=O)(=O)c1cccc(OCCCC=C)c1 (stereo partly shown) [Compound 225] ?
Reply: 8.1

* * *

# Assayed System: HIV-1 protease (Human immunodeficiency virus type 1 group M subtype B)
# Construct: made in house; host or cells: E. coli BL21 (dE3)pLysS, pET30a vector
# Protocol Description: HIV-1 Protease Inhibition Assay
# Type: biochemical
# Condition Notes: fluorogenic substrate assay
This listing pairs compounds with measured IC50.
Give the number; nM is assumed, so skip it.

Task item: Could you tell me which IC50 is on file for CC(C)(C)NC(=O)[C@@H]1C[C@@H]2CCCC[C@@H]2CN1C[C@@H](O)[C@H](Cc1ccccc1)NC(=O)OC1CCCC12CCCO2 (single isomer, unassigned) [Compound 144] ?
Reply: 40

Task item: Could you tell me which IC50 is on file for COc1ccc(S(=O)(=O)NN(CC(C)C)C[C@@H](O)[C@H](Cc2ccccc2)NC(=O)O[C@@H]2CC3CCO[C@@H]3C2)cc1 (stereo partly shown) [Compound 186] ?
Reply: 10

* * *

# Assayed System: HIV-1 protease (Human immunodeficiency virus type 1 group M subtype B)
# Construct: made in house; host or cells: E. coli BL21 (dE3)pLysS, pET30a vector
# Protocol Description: HIV-1 Protease Inhibition Assay
# Format: biochemical
# Condition Notes: fluorogenic substrate assay
Property Measured: IC50 (nM)
Give the number; nM is assumed, so skip it.

Here are 3 compounds together with their reported answers.
| Compound | IC50, nM |
| --- | --- |
| CC(C)CN(C[C@@H](O)[C@H](Cc1ccccc1)NC(=O)O[C@H]1CCOC1)S(=O)(=O)c1ccc(CN2CCOCC2)cc1 | 968 |
| CC(C)CN(C[C@@H](O)[C@H](Cc1ccccc1)NC(=O)O[C@@H]1CC2CCO[C@@H]2C1)S(=O)(=O)c1cccc(/C=N/O)c1 (some centres unmarked) | 2.9 |
| CC(C)CN(C[C@@H](O)[C@H](Cc1ccccc1)NC(=O)OC1CC2CCO[C@@H]2C1)S(=O)(=O)c1cccc(O)c1 (some centres unmarked) | 5.5 |

Next, consider the following compound.
Task item: Enter reported IC50 observed with HIV-1 protease (Human immunodeficiency virus type 1 group M subtype B) for COc1ccc(S(=O)(=O)N(N)C[C@@H](O)[C@H](Cc2ccccc2)NC(=O)O[C@H]2CO[C@H]3OCCC32)cc1 (some centres unmarked)
Reply: 55
